Every entry's value here was drawn from ChEMBL document CHEMBL2146384.

- Assay Name: Cmax in Balb/cA mouse at 50 mg/kg, po
- Format: ADME, organism-based
- Design: dose 50 mg/kg, route oral
- Measurement Setup: in vivo
Assay Metric: Cmax (µM)
Answers are plain numbers, in µM.

input: Recorded Cmax of C[C@@H](NS(=O)(=O)CC/C=C/Cn1ccc(=O)[nH]c1=O)c1cccc(OCC2CC2)c1 , please.
output: 19.5

---

- System Name: Deoxyuridine 5'-triphosphate nucleotidohydrolase, mitochondrial (Homo sapiens)
- Assay Name: Inhibition of human dUTPase-mediated formation of [5-3H]dUMP expressed in Escherichia coli BL21 (DE3) after 15 mins by HPLC analysis
Assay Metric: pIC50
One number for each entry, as −log10 of the molar value.

# Smi, Assay Metric, Test Value
data = [
    ("CC(C)(CC/C=C/Cn1ccc(=O)[nH]c1=O)NS(=O)(=O)c1cccc(OC2CCCC2)c1", "pIC50", 7.48),
    ("C[C@@H](NS(=O)(=O)c1ccc(Cn2ccc(=O)[nH]c2=O)cc1)c1cccc(OCC2CC2)c1", "pIC50", 6.09),
    ("C[C@@H](NS(=O)(=O)c1ccc(Cn2ccc(=O)[nH]c2=O)cc1)c1cccc(OCC(F)F)c1", "pIC50", 6.39),
    ("COc1cccc(S(=O)(=O)NC(C)(C)CC/C=C/Cn2ccc(=O)[nH]c2=O)c1", "pIC50", 6.47),
]

For each listed entry, give its pIC50.
1. C[C@@H](NS(=O)(=O)c1ccc(Cn2ccc(=O)[nH]c2=O)cc1)c1cccc(OC2CCCC2)c1
2. CC(C)(NS(=O)(=O)c1cccc(OCC2CC2)c1)c1ccc(Cn2ccc(=O)[nH]c2=O)cc1
3. C[C@@H](NS(=O)(=O)CC/C=C/Cn1ccc(=O)[nH]c1=O)c1cccc(OC2CCCC2)c1
4. C[C@@H](NS(=O)(=O)CC/C=C/Cn1ccc(=O)[nH]c1=O)c1cccc(OCC(F)F)c1
5. CC(C)(NS(=O)(=O)c1cccc(OCC(F)F)c1)c1ccc(Cn2ccc(=O)[nH]c2=O)cc1

output:
1: 6.37; 2: 7.14; 3: 7.39; 4: 7.09; 5: 7.14

---

- Assay Name: AUC (0 to t) in Balb/cA mouse at 50 mg/kg, po
- Format: ADME, organism-based
- Parameters: dose 50 mg/kg, route oral
- Measurement Setup: plasma
Assay Metric: AUC(0-t) (µM·h)
One number for each entry, in µM·h.

input: Give the measured AUC(0-t) of C[C@@H](NS(=O)(=O)CC/C=C/Cn1ccc(=O)[nH]c1=O)c1cccc(OCC2CC2)c1 .
output: 19.5

---

Can you tell me pIC50 for the items I'm about to list?
- System Name: Deoxyuridine 5'-triphosphate nucleotidohydrolase, mitochondrial (Homo sapiens, UniProt P33316)
- Sequence (P33316 whole entry): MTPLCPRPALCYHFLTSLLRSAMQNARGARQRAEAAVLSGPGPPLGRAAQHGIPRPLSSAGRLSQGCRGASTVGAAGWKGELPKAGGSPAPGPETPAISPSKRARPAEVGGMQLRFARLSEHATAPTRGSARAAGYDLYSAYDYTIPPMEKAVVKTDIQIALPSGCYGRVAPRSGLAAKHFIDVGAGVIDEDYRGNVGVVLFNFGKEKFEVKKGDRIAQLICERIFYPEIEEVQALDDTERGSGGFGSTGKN
Numbers only, as −log10 of the molar value.

A selection of reference data follows.
# Smi, pIC50
records = [
    ("CC(C)(CC/C=C/Cn1ccc(=O)[nH]c1=O)NS(=O)(=O)c1cccc(OCC(F)F)c1", 7.59),
    ("CC(C)(NS(=O)(=O)c1ccccc1)c1ccc(Cn2ccc(=O)[nH]c2=O)cc1", 5.74),
    ("C[C@@H](NS(=O)(=O)CC/C=C/Cn1ccc(=O)[nH]c1=O)c1cccc(OCC2CC2)c1", 7.41),
    ("CC(C)(CC/C=C/Cn1ccc(=O)[nH]c1=O)NS(=O)(=O)c1ccccc1", 5.80),
    ("CC(C)(NS(=O)(=O)c1cccc(OC2CCCC2)c1)c1ccc(Cn2ccc(=O)[nH]c2=O)cc1", 7.51),
]

Here is another molecule to look at.
input: For the molecule COc1cccc(S(=O)(=O)NC(C)(C)c2ccc(Cn3ccc(=O)[nH]c3=O)cc2)c1 , what pIC50 is on record?
output: 5.90

---

- Assay Name: Tmax in Balb/cA mouse at 50 mg/kg, po
- Type: ADME, organism-based
- Parameters: dose 50 mg/kg, route oral
- Measurement Setup: in vivo
Assay Metric: Tmax
Express your answer as a number followed by its unit.

input: Tmax for C[C@@H](NS(=O)(=O)CC/C=C/Cn1ccc(=O)[nH]c1=O)c1cccc(OCC2CC2)c1 ?
output: 30 min
